Target: intracellular HASPIN (Homo sapiens (Human), UniProt Q8TF76)
Sequence (Q8TF76 whole entry): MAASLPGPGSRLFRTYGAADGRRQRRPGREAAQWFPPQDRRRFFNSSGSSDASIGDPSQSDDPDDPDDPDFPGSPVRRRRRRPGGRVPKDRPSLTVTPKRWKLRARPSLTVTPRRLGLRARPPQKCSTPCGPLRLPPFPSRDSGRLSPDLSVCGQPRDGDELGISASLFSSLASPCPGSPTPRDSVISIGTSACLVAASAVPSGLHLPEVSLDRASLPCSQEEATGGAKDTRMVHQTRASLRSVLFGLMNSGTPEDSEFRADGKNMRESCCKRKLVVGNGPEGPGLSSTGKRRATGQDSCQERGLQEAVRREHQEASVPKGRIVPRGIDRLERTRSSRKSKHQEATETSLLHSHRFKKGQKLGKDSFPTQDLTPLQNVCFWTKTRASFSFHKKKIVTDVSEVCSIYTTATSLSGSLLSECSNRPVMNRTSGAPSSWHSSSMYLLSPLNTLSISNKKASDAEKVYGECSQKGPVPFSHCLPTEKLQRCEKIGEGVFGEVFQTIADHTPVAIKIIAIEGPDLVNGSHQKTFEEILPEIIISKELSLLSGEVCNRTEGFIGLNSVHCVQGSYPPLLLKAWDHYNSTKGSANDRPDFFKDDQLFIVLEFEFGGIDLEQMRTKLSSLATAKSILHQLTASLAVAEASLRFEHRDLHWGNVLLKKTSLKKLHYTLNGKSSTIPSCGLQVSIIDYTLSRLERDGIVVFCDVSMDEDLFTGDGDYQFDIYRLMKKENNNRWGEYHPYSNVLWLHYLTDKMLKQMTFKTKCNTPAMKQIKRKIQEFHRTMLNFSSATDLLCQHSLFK
Test: Cellular HASPIN inhibition assay, western blot phospho H3T3 in synchronized SW620 cells
Assay type: cell-based
Conditions: semiquantitative, read-out: SW620 PH3(T3) in synchronized cells
Protocol: Compounds can be screened for their ability to inhibit intracellular HASPIN using a western blot assay to detect phosphorylation of the HASPIN substrate H3T3 in synchronized cells. […] The protein content of the lysates is determined by DC protein assay (Biorad, Ref. 5000116). […] The bands are visualized and quantified using an Odyssey infrared imaging system (Li-Cor Biosciences). […]
EC50 values, listed per item

| molecule | target of assay | EC50 |
| --- | --- | --- |
| COc1ccccc1-c1c2c(n(CCF)c1C(N)=O)-c1ccncc1OC2(C)C [Example 73] | intracellular HASPIN (Homo sapiens (Human), UniProt Q8TF76) | 500 to 10000 nM |
| NC(=O)c1cc2c([nH]1)-c1ccncc1O[C@@H]2C1CCOCC1 (single isomer, unassigned) [Example 71] | intracellular HASPIN (Homo sapiens (Human), UniProt Q8TF76) | 500 to 10000 nM |
| CCn1c(C(N)=O)c(-c2ccccc2OC)c2c1-c1ccncc1OC2(C)C [Example 68] | intracellular HASPIN (Homo sapiens (Human), UniProt Q8TF76) | < 500 nM |

INPUT: Name the reported EC50 value associated with the molecule CC1(C)Oc2cnccc2-c2c1cc(C(N)=O)n2CCF [Example 52]
OUTPUT: < 500 nM

INPUT: EC50 for COCCn1c(C(N)=O)cc2c1-c1ccncc1OC2(C)C [Example 45] ?
OUTPUT: < 500 nM

INPUT: So what does the record say about EC50 for CCn1c(C(N)=O)cc2c1-c1ccncc1OC21CCNCC1 [Example 91] ?
OUTPUT: < 500 nM

INPUT: Record request: EC50 value, item NC(=O)c1cc2c([nH]1)-c1ccncc1O[C@H]2C1CCOCC1 (single isomer, unassigned) [Example 72]
OUTPUT: 500 to 10000 nM

====

System: SW620
Test: Combination assay, SW620
Type: cell-based, human
Conditions: Homo sapiens, SW-620; SW620, chemotherapeutic alone; read-out: Chemo GI50
Description: The combination index (CI) of combinations of certain example compounds and various chemotherapeutic agents in the CellTitetI-Glo® in vitro cell proliferation assays may be tested. A combination index score is calculated by the Chou and Talalay method (CalcuSyn software, Biosoft). The strength of synergy is scored using the ranking system Chou and Talalay: CI less than 0.8 indicates synergy, CI between 0.8 and 1.2 indicates additivity and CI greater than 1.2 indicates antagonism. […]
reported property: GI50 (nM)

| molecule | unit descriptor | GI50 |
| --- | --- | --- |
| CC(=O)O[C@H]1C(=O)[C@@]2(C)[C@H]([C@H](OC(=O)c3ccccc3)[C@]3(O)C[C@H](OC(=O)[C@H](O)[C@@H](NC(=O)c4ccccc4)c4ccccc4)C(C)=C1C3(C)C)[C@]1(OC(C)=O)CO[C@@H]1C[C@@H]2O [Taxol, paclitaxel, reference compound] | nM | 5 |

a = COc1ccc(S(=O)(=O)Nc2cccnc2Nc2ccc(O)cc2)cc1 [ABT-751, reference compound]
b = C[C@@H](Oc1cc(-c2cnn(C3CCNCC3)c2)cnc1N)c1c(Cl)ccc(F)c1Cl [Crizotinib, crizotinib, reference compound]
c = CN(NC(=O)CC(=O)NN(C)C(=S)c1ccccc1)C(=S)c1ccccc1 [Elesclomol, elesclomol, reference compound]
INPUT: Would you mind ranking these molecules by ascending GI50? Returns: the labels listed in the requested order.
OUTPUT: c, a, b

====

Molecular target: CDK19/Cyclin C (Homo sapiens (Human), UniProt Q9BWU1)
Sequence (Q9BWU1 whole entry): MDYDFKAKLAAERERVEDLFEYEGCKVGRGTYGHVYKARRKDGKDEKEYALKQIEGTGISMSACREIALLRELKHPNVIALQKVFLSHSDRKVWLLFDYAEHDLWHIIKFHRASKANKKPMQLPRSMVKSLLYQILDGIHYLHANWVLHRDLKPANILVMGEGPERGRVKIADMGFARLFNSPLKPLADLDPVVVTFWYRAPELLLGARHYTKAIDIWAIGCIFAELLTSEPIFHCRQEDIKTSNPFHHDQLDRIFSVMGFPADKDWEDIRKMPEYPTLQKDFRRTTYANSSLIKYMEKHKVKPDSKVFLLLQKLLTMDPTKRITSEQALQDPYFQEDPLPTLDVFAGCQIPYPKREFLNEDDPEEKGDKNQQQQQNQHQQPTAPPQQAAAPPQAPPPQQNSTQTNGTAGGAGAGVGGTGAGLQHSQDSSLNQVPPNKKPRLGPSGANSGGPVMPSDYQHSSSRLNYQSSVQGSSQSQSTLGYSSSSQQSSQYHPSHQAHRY
Sequence (P24863 whole entry partner): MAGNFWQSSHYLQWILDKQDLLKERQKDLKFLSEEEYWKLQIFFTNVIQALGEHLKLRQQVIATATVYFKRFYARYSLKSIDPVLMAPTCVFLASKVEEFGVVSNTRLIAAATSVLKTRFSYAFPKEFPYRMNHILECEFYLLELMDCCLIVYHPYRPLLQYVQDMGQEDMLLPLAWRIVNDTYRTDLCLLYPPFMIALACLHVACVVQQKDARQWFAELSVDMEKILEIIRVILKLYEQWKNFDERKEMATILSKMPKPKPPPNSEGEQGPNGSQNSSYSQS
Test: CDK19/Cyclin C binding assay (LanthaScreen Eu-Kinase Binding Assay)
Conditions: read-out: CDK19-CYCC IC50
pIC50: −log10 of the molar value.
reported property: pIC50

| smiles code | target of assay | pIC50 |
| --- | --- | --- |
| Cn1c(C(N)=O)cc2c1-c1ccncc1OC21CCOCC1 | CDK19/Cyclin C (Homo sapiens (Human), UniProt Q9BWU1) | 8.21 |
| CC1(C)Oc2cncc(Cl)c2-c2[nH]c(C(N)=O)cc21 | CDK19/Cyclin C (Homo sapiens (Human), UniProt Q9BWU1) | 8.85 |
| CCn1c(C(N)=O)cc2c1-c1ccncc1OC2(C)C | CDK19/Cyclin C (Homo sapiens (Human), UniProt Q9BWU1) | 8.96 |
| Cl.NC(=O)c1cc2c([nH]1)-c1ccncc1OC21CCNCC1 | CDK19/Cyclin C (Homo sapiens (Human), UniProt Q9BWU1) | 6.26 |
| CCn1c(C(N)=O)cc2c1-c1ccncc1OC21CCOCC1 | CDK19/Cyclin C (Homo sapiens (Human), UniProt Q9BWU1) | 8.34 |

1 = COc1ccccc1-c1c(C(N)=O)[nH]c2c1C(C)(C)Oc1cnccc1-2
2 = CC1(C)Oc2cnccc2-c2[nH]c(C(N)=O)c(C3CC3)c21
INPUT: Which has the smaller recorded pIC50, 1 or 2 ? Write the label of whichever entry you select.
OUTPUT: 1

1 = Cn1c(C(N)=O)cc2c1-c1ccncc1OC21CCC1
2 = CC1(C)Oc2cnccc2-c2c1cc(C(N)=O)n2CC(F)(F)F
INPUT: // pick larger pIC50 from pair: 1 vs 2 // caller expects the label of the chosen entry
OUTPUT: 1
(1: 8.85, 2: 7.71)

====

Molecular target: Haspin kinase (Homo sapiens (Human))
pIC50: −log10 of the molar value.
reported property: pIC50

Solved cases (3 shown):
| smiles code | target of assay | pIC50 |
| --- | --- | --- |
| CCn1c(C(N)=O)c(C2CC2)c2c1-c1ccncc1OC2(C)C | Haspin kinase (Homo sapiens (Human)) | 7.76 |
| CCn1c(C(N)=O)cc2c1-c1ccncc1OC21CCN(CC(F)(F)F)CC1 | Haspin kinase (Homo sapiens (Human)) | 7.41 |
| CC1(C)Oc2cnccc2-c2[nH]c(C(=O)NCc3ccccc3)cc21 | Haspin kinase (Homo sapiens (Human)) | 6.52 |

I = CC1(C)Oc2cnccc2-c2[nH]c(C(N)=O)c(-c3ccc(S(N)(=O)=O)cc3)c21
II = Cn1c(C(N)=O)cc2c1-c1ccncc1OC21CCC1
INPUT: # query: argmin of pIC50 over I and II Mark your answer with the label of the selected entry.
OUTPUT: I

I = CC(C)NC(=O)c1cc2c([nH]1)-c1ccncc1OC2(C)C
II = CC1(C)Oc2cnccc2-c2[nH]c(C(=O)O)cc21
III = CC1(C)Oc2cnccc2-c2[nH]c(C(N)=O)c(-c3ccc4[nH]ncc4c3)c21
INPUT: Order these by pIC50, descending, and give the full ranking. Output spec: labels arranged per the requested ranking.
OUTPUT: II, III, I

====

Target: intracellular CDK8 (Homo sapiens (Human))
Sequence (P49336 whole entry): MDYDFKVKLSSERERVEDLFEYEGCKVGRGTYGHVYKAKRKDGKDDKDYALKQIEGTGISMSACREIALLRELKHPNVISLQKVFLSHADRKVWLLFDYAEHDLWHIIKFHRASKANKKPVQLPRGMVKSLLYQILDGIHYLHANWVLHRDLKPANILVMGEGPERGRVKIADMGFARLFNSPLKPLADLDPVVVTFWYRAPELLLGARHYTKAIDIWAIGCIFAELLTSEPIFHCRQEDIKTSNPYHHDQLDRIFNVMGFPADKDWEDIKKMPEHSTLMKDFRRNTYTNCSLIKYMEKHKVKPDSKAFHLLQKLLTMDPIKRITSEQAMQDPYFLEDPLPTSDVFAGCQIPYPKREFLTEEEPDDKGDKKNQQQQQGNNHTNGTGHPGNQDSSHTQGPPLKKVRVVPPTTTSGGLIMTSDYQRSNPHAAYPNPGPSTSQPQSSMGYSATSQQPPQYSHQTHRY
Sequence (P24863 whole entry partner): as the sequence (P24863 whole entry partner) above
Sequence (Q93074 whole entry partner): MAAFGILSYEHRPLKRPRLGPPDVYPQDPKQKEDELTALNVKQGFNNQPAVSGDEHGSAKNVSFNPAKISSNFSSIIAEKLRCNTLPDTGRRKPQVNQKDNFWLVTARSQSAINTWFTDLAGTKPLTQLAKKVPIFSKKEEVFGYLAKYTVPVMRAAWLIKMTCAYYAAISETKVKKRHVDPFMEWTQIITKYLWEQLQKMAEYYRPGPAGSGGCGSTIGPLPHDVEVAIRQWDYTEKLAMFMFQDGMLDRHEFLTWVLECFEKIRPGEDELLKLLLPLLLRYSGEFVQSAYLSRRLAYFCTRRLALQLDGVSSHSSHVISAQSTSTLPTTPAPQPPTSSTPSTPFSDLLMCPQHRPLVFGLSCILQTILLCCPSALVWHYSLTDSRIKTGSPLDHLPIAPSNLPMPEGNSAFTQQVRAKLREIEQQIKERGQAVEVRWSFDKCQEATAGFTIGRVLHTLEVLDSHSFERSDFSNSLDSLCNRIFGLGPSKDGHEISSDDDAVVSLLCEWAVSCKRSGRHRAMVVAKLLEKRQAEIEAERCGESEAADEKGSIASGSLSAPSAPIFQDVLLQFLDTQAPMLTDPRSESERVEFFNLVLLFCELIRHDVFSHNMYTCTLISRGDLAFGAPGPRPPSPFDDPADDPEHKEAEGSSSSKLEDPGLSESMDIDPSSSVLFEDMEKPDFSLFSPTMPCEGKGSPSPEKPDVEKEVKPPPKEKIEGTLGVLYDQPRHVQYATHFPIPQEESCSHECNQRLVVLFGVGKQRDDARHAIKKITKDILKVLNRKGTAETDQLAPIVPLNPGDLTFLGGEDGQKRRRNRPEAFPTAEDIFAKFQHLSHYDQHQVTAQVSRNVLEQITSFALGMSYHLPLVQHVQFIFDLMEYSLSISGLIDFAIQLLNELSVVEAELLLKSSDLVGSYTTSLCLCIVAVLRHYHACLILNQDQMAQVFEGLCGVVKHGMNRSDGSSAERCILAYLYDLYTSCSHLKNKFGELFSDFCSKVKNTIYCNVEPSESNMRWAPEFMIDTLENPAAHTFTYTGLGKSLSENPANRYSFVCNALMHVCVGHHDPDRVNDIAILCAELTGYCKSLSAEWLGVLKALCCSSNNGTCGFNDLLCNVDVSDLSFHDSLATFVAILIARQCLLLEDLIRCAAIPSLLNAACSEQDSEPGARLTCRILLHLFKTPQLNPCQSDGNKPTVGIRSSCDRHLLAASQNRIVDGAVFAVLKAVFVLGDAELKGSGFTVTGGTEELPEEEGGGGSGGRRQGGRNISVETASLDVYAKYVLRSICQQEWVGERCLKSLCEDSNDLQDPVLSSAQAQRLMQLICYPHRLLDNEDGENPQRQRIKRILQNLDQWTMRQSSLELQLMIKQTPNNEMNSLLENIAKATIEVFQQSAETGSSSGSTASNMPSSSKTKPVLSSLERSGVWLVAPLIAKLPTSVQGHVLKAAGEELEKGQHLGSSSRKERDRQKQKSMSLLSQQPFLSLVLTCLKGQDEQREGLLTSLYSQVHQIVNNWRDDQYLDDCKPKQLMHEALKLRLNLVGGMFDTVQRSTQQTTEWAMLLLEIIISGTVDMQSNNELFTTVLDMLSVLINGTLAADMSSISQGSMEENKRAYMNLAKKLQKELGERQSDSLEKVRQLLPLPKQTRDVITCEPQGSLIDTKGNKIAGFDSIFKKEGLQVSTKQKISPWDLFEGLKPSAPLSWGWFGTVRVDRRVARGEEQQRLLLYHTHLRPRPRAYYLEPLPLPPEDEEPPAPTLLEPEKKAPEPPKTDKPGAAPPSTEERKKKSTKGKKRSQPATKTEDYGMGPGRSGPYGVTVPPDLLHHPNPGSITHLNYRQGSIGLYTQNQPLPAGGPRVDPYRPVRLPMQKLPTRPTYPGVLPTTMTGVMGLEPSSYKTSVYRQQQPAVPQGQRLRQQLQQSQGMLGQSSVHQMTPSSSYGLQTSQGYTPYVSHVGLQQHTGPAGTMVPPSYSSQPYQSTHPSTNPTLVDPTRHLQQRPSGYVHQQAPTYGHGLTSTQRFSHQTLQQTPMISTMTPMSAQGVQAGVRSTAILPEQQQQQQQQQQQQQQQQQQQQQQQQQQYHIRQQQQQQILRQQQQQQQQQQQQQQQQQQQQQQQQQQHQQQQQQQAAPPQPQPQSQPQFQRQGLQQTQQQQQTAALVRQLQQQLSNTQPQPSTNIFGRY
Assay: Endogenous phosphoSTAT1 inhibition in SW620 cells growing in 10% FBS
Assay type: cell-based
Conditions: semiquantitative, read-out: SW620 P-STAT1(S727)
reported property: EC50

Please review the entries below; each comes with its answer.
| compound | reported property | measured |
| --- | --- | --- |
| Cn1c(C(N)=O)cc2c1-c1ccncc1OC21CCCCC1 | EC50 | < 500 nM |
| NC(=O)c1cc2c([nH]1)-c1ccncc1O[C@H]2C1CCCCC1 (single isomer, unassigned) | EC50 | < 500 nM |

INPUT: Value lookup for EC50; key = `NC(=O)c1cc2c([nH]1)-c1ccncc1OC21CCC1`
OUTPUT: < 500 nM

====

# Haspin kinase (Homo sapiens (Human), UniProt Q8TF76): IC50 values follow
# Sequence (Q8TF76 484-798): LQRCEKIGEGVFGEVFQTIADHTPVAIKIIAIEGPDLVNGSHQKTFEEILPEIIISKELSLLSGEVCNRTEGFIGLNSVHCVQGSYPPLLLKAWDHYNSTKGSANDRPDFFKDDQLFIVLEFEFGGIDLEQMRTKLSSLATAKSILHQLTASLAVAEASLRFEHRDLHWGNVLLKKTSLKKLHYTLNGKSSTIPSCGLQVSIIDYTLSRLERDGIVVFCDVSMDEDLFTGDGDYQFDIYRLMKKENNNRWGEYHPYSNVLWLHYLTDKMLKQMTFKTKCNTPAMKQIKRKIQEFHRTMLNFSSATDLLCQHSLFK
reported property: IC50 (nM)

Sample records with IC50:
| molecule | unit descriptor | measured |
| --- | --- | --- |
| CC1(C)Oc2cnccc2-c2c1cc(C(N)=O)n2CC(F)(F)F | nM | 186 |
| CC1(C)Oc2c(ccnc2Cl)-c2[nH]c(C(N)=O)cc21 | nM | 292 |
| CCn1c(C(N)=O)c(-c2ccccc2C(F)(F)F)c2c1-c1ccncc1OC2(C)C | nM | 233 |
| CCn1c(C(N)=O)cc2c1-c1ccncc1O[C@H]2C1CCCCC1 (single isomer, unassigned) | nM | 95.2 |
| CC1(C)Oc2cnccc2-c2[nH]c(C(=O)NCCc3ccccc3)cc21 | nM | 418 |
| CC1(C)Oc2cnccc2-c2[nH]c(C(=O)NC3CCNCC3)cc21 | nM | 1730 |
| NC(=O)c1cc2c([nH]1)-c1ccncc1OC21CCN(C2CC2)CC1 | nM | 4280 |
| Cn1c(C(N)=O)cc2c1-c1ccncc1OC2(C)C | nM | 87.4 |
| CCN1CCC2(CC1)Oc1cnccc1-c1[nH]c(C(N)=O)cc12 | nM | 153 |
| CCn1c(C(N)=O)cc2c1-c1ccncc1O[C@@H]2C1CCCCC1 (single isomer, unassigned) | nM | 522 |

A = NC(=O)c1cc2c([nH]1)-c1ccncc1OC21CCC1
B = CC(C)n1c(C(=O)O)cc2c1-c1ccncc1OC2(C)C
C = CC(=O)N1CCC2(CC1)Oc1cnccc1-c1[nH]c(C(N)=O)cc12
D = CC1(C)Oc2cnccc2-c2[nH]c(C(=O)N3CCOCC3)cc21
E = CCn1c(C(N)=O)cc2c1-c1ccncc1OC2(C)C
INPUT: Rank entries according to their IC50, from the largest number down. Labels, ranked as asked.
OUTPUT: B, D, C, E, A
